Origin of the recorded values: patent US9126941B2

target: AR (Homo sapiens, UniProt P10275); assay: cell-based; conditions: LN-AR, absence of R1881
Sequence (P10275 whole entry, looked up): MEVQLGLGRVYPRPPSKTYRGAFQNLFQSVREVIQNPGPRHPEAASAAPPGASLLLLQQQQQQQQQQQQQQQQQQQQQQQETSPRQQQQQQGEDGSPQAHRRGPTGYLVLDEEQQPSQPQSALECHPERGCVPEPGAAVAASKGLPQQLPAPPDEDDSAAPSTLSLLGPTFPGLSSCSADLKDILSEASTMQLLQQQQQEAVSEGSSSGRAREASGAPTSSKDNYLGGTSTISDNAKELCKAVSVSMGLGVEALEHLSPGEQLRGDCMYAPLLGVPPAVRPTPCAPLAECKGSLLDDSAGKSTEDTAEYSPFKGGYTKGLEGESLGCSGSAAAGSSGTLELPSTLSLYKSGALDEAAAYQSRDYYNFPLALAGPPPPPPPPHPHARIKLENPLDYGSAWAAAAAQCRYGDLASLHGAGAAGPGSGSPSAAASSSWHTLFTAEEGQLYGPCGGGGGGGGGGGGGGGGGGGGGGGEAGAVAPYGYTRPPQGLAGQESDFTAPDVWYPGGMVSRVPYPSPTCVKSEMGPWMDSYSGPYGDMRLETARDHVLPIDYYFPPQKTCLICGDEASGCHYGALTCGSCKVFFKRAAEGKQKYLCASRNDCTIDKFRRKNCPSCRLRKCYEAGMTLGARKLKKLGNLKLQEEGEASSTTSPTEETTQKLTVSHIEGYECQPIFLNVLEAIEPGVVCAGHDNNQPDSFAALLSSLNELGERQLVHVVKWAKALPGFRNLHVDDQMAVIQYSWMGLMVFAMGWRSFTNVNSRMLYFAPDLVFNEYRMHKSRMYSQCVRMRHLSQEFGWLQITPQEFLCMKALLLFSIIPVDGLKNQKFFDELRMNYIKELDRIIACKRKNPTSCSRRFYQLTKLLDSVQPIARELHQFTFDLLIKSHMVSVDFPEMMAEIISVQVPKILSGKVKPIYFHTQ
OBSERVATION TYPE: Agonistic activity on AR, reporter

Solved cases below.
Entry under review: CN1C(=O)N(c2ccc(C#N)c(C(F)(F)F)c2)C(=O)C12CCC2 [RD74, reference compound] . Reported Agonistic activity on AR, reporter?
strongly activated AR

Entry under review: Cc1ccc(N2C(=S)N(c3ccc(C#N)c(C(F)(F)F)c3)C(=NC(=S)Nc3ccccc3)C23CCC3)cc1 [RD92] . Reported Agonistic activity on AR, reporter?
no agonistic activity

Entry under review: Cc1ccc(N2C(=S)N(c3ccc(C#N)c(C(F)(F)F)c3)C(=O)C23CCC3)cc1 [RD37] . Reported Agonistic activity on AR, reporter?
no agonistic activity

Entry under review: N#Cc1ccc(N2C(=O)C3(CCCC3)NC2=S)cc1C(F)(F)F [RD77] . Reported Agonistic activity on AR, reporter?
strongly activated AR

Entry under review: CN1C(=S)N(c2ccc(C#N)c(C(F)(F)F)c2)C(=O)C12CCC2 [RD73, reference compound] . Reported Agonistic activity on AR, reporter?
strongly activated AR

Next:
Entry under review: CN1C(=O)N(c2ccc(C#N)c(C(F)(F)F)c2)C(=O)C12CCCC2 [RD76] . Reported Agonistic activity on AR, reporter?
strongly activated AR

Entry under review: CN1C(=S)N(c2ccc(C#N)c(C(F)(F)F)c2)C(=O)C12CCCC2 [RD75, reference compound] . Reported Agonistic activity on AR, reporter?
strongly activated AR

Entry under review: CCNC(=S)N=C1N(c2ccc(C#N)c(C(F)(F)F)c2)C(=S)N(c2ccc(C)cc2)C1(C)C [RD91] . Reported Agonistic activity on AR, reporter?
no agonistic activity

Entry under review: Cc1ccc(N2C(=S)N(c3ccc(C#N)c(C(F)(F)F)c3)C(=NC(=S)Nc3ccc(C#N)c(C(F)(F)F)c3)C23CCC3)cc1 [RD93] . Reported Agonistic activity on AR, reporter?
no agonistic activity

Entry under review: CC1(C)C(=O)N(c2ccc(C#N)c(C(F)(F)F)c2)C(=S)N1CCCCO [RU 59063, reference compound] . Reported Agonistic activity on AR, reporter?
strongly activated AR

====

target: AR (Homo sapiens, UniProt P10275); test: cell-based; conditions: read-out: Fold induction of AR response reporter, 1 μM
Please provide measured fold induction at 1 µM for the entries that follow.
# respond with the number and nothing more

Identify the measured fold induction at 1 µM of CN1C(=S)N(c2ccc(C#N)c(C(F)(F)F)c2)C(=O)C12CCCC2 [RD75, reference compound] for AR (Homo sapiens, UniProt P10275).
16.6

Identify the measured fold induction at 1 µM of CN1C(=O)N(c2ccc(C#N)c(C(F)(F)F)c2)C(=O)C12CCC2 [RD74, reference compound] for AR (Homo sapiens, UniProt P10275).
14.3

Identify the measured fold induction at 1 µM of CN1C(=S)N(c2ccc(C#N)c(C(F)(F)F)c2)C(=O)C12CCC2 [RD73, reference compound] for AR (Homo sapiens, UniProt P10275).
19.4

Identify the measured fold induction at 1 µM of CCNC(=S)N=C1N(c2ccc(C#N)c(C(F)(F)F)c2)C(=S)N(c2ccc(C)cc2)C1(C)C [RD91] for AR (Homo sapiens, UniProt P10275).
1.18

Identify the measured fold induction at 1 µM of Cc1ccc(N2C(=S)N(c3ccc(C#N)c(C(F)(F)F)c3)C(=NC(=S)Nc3ccc(C#N)c(C(F)(F)F)c3)C23CCC3)cc1 [RD93] for AR (Homo sapiens, UniProt P10275).
1.1

Identify the measured fold induction at 1 µM of Cc1ccc(N2C(=S)N(c3ccc(C#N)c(C(F)(F)F)c3)C(=NC(=S)Nc3ccccc3)C23CCC3)cc1 [RD92] for AR (Homo sapiens, UniProt P10275).
1.41

Identify the measured fold induction at 1 µM of Cc1ccc(N2C(=S)N(c3ccc(C#N)c(C(F)(F)F)c3)C(=O)C23CCC3)cc1 [RD37] for AR (Homo sapiens, UniProt P10275).
1.19

Identify the measured fold induction at 1 µM of CN1C(=O)N(c2ccc(C#N)c(C(F)(F)F)c2)C(=O)C12CCCC2 [RD76] for AR (Homo sapiens, UniProt P10275).
19.8

Identify the measured fold induction at 1 µM of CC1(C)C(=O)N(c2ccc(C#N)c(C(F)(F)F)c2)C(=S)N1CCCCO [RU 59063, reference compound] for AR (Homo sapiens, UniProt P10275).
20.8

Identify the measured fold induction at 1 µM of N#Cc1ccc(N2C(=O)C3(CCCC3)NC2=S)cc1C(F)(F)F [RD77] for AR (Homo sapiens, UniProt P10275).
22.5

====

Please provide measured fold induction at 1 µM for the entries that follow.
biological target: AR (Homo sapiens); experiment: cell-based; format: cell-based; settings: LNCaP, read-out: Fold induction of endogenous PSA, 1 μM
# respond with the number and nothing more

Identify the measured fold induction at 1 µM of "Cc1ccc(N2C(=S)N(c3ccc(C#N)c(C(F)(F)F)c3)C(=NC(=S)Nc3ccccc3)C23CCC3)cc1" for AR (Homo sapiens).
1.05

Identify the measured fold induction at 1 µM of "Cc1ccc(N2C(=S)N(c3ccc(C#N)c(C(F)(F)F)c3)C(=O)C23CCC3)cc1" for AR (Homo sapiens).
1.2

Identify the measured fold induction at 1 µM of CN1C(=O)N(c2ccc(C#N)c(C(F)(F)F)c2)C(=O)C12CCC2 [RD74, reference compound] for AR (Homo sapiens).
15.2

Identify the measured fold induction at 1 µM of CN1C(=S)N(c2ccc(C#N)c(C(F)(F)F)c2)C(=O)C12CCC2 [RD73, reference compound] for AR (Homo sapiens).
17.9

====

target: AR (Homo sapiens, UniProt P10275); assay: cell-based; details: read-out: Fold induction of AR response reporter, 10 μM
OBSERVATION TYPE: fold induction at 10 µM
# respond with the number and nothing more

Entry under review: Cc1ccc(N2C(=S)N(c3ccc(C#N)c(C(F)(F)F)c3)C(=O)C23CCC3)cc1 [RD37] . Reported fold induction at 10 µM?
0.89

Entry under review: Cc1ccc(N2C(=S)N(c3ccc(C#N)c(C(F)(F)F)c3)C(=NC(=S)Nc3ccc(C#N)c(C(F)(F)F)c3)C23CCC3)cc1 [RD93] . Reported fold induction at 10 µM?
1.3

Entry under review: CN1C(=S)N(c2ccc(C#N)c(C(F)(F)F)c2)C(=O)C12CCCC2 [RD75, reference compound] . Reported fold induction at 10 µM?
33.8

Entry under review: CCNC(=S)N=C1N(c2ccc(C#N)c(C(F)(F)F)c2)C(=S)N(c2ccc(C)cc2)C1(C)C [RD91] . Reported fold induction at 10 µM?
1.28

Entry under review: CN1C(=S)N(c2ccc(C#N)c(C(F)(F)F)c2)C(=O)C12CCC2 [RD73, reference compound] . Reported fold induction at 10 µM?
35.2

Entry under review: Cc1ccc(N2C(=S)N(c3ccc(C#N)c(C(F)(F)F)c3)C(=NC(=S)Nc3ccccc3)C23CCC3)cc1 [RD92] . Reported fold induction at 10 µM?
1.17

Entry under review: CN1C(=O)N(c2ccc(C#N)c(C(F)(F)F)c2)C(=O)C12CCCC2 [RD76] . Reported fold induction at 10 µM?
39

Entry under review: CN1C(=O)N(c2ccc(C#N)c(C(F)(F)F)c2)C(=O)C12CCC2 [RD74, reference compound] . Reported fold induction at 10 µM?
30.6

Entry under review: N#Cc1ccc(N2C(=O)C3(CCCC3)NC2=S)cc1C(F)(F)F [RD77] . Reported fold induction at 10 µM?
37.1

Entry under review: CC1(C)C(=O)N(c2ccc(C#N)c(C(F)(F)F)c2)C(=S)N1CCCCO [RU 59063, reference compound] . Reported fold induction at 10 µM?
34.6

====

biological target: UniProt P10275; assay: cell-based; format: cell-based; conditions: AR over expressed LNCaP, absence of R1881
OBSERVATION TYPE: Agonistic activity, secreted PSA

Entry under review: "Cc1ccc(N2C(=S)N(c3ccc(C#N)c(C(F)(F)F)c3)C(=NC(=S)Nc3ccccc3)C23CCC3)cc1" . Reported Agonistic activity, secreted PSA?
no agonistic activities

Entry under review: "Cc1ccc(N2C(=S)N(c3ccc(C#N)c(C(F)(F)F)c3)C(=NC(=S)Nc3ccc(C#N)c(C(F)(F)F)c3)C23CCC3)cc1" . Reported Agonistic activity, secreted PSA?
no agonistic activities

Entry under review: "CCNC(=S)N=C1N(c2ccc(C#N)c(C(F)(F)F)c2)C(=S)N(c2ccc(C)cc2)C1(C)C" . Reported Agonistic activity, secreted PSA?
no agonistic activities

Entry under review: "Cc1ccc(N2C(=S)N(c3ccc(C#N)c(C(F)(F)F)c3)C(=O)C23CCC3)cc1" . Reported Agonistic activity, secreted PSA?
no agonistic activities
